Listing of entries alongside the reported Ki.
- TESTED TARGET: BRD4 (BDII_E352-M457) (Homo sapiens, UniProt O60885)
- Construct: protocol; made in house
- ASSAY: TR-FRET bromodomain binding assay, second bromodomain of BRD4
- MEASUREMENT CONTEXT: TR-FRET assay protocol E (compound 9.19 μM-150 pM); 30 nM probe
ENDPOINT NAME: Ki (nM)

# COMPOUND, UNITS OF MEASURE, READOUT VALUE
records = [
    ("Cn1cc2c3c(c[nH]c3c1=O)C(CCc1ccccc1)Nc1ccc(CS(C)(=O)=O)cc1-2 (stereo not drawn) [Example 18]", "nM", 24.1),
    ("Cn1cc2c3c(c[nH]c3c1=O)CN(c1ccc(F)cc1)c1ccc(S(C)(=O)=O)cc1-2 [Example 8]", "nM", 3.77),
    ("Cn1cc2c3c(c[nH]c3c1=O)CNc1ccc(CS(C)(=O)=O)cc1-2 [Example 5]", "nM", 758),
]

###

Listing of entries alongside the reported Ki.
- TESTED TARGET: BRD4 (BDI_K57-E168) (Homo sapiens)
- Construct: BD1: amino acids K57-E168; made in house
- ASSAY: TR-FRET bromodomain binding assay, first bromodomain of BRD4
- MEASUREMENT CONTEXT: TR-FRET assay protocol G (compound 0.92 μM-15 pM); 100 nM probe

# COMPOUND, UNITS OF MEASURE, LIMIT OPERATOR, Ki
measured = [
    ("CCOC(=O)C1c2c[nH]c3c(=O)n(C)cc(c23)-c2cc(CS(C)(=O)=O)ccc2N1c1ccc(F)cc1 (racemic) [Example 34]", "nM", "=", 2.45),
    ("Cn1cc2c3c(c[nH]c3c1=O)CN(C(=O)CCc1ccccc1)c1ccc(CS(C)(=O)=O)cc1-2", "nM", "=", 16),
    ("COc1ccc(S(=O)(=O)N2Cc3c[nH]c4c(=O)n(C)cc(c34)-c3cc(CS(C)(=O)=O)ccc32)cc1", "nM", ">", 238),
    ("CCS(=O)(=O)c1ccc2c(c1)-c1cn(C)c(=O)c3[nH]cc(c13)CN2[C@H](C)c1ccccc1", "nM", "=", 25.6),
]

###

- TESTED TARGET: BRD4 (BDII_E352-M457) (Homo sapiens, UniProt O60885)
- Construct: protocol; made in house
- ASSAY: TR-FRET bromodomain binding assay, second bromodomain of BRD4
- MEASUREMENT CONTEXT: TR-FRET assay protocol G (compound 0.92 μM-15 pM); 30 nM probe
Listing of entries alongside the reported Ki.
ENDPOINT NAME: Ki (nM)

# COMPOUND, TESTED TARGET, ENDPOINT NAME, READOUT VALUE
rows = [
    ("Cn1cc2c3c(c(C(=O)O)[nH]c3c1=O)CN(c1ccc(F)cc1F)c1ccc(CS(C)(=O)=O)cc1-2", "BRD4 (BDII_E352-M457) (Homo sapiens, UniProt O60885)", "Ki", 8.07),
    ("Cn1cc2c3c(c[nH]c3c1=O)CN(C(=O)CCC1CCCC1)c1ccc(CS(C)(=O)=O)cc1-2", "BRD4 (BDII_E352-M457) (Homo sapiens, UniProt O60885)", "Ki", 4.71),
    ("Cn1cc2c3c(c[nH]c3c1=O)CN(S(=O)(=O)C1CC1)c1ccc(CS(C)(=O)=O)cc1-2", "BRD4 (BDII_E352-M457) (Homo sapiens, UniProt O60885)", "Ki", 12.8),
    ("CC(C)CN1Cc2c[nH]c3c(=O)n(C)cc(c23)-c2cc(CS(C)(=O)=O)ccc21", "BRD4 (BDII_E352-M457) (Homo sapiens, UniProt O60885)", "Ki", 0.82),
    ("COc1ccc(OC(=O)N2Cc3c[nH]c4c(=O)n(C)cc(c34)-c3cc(CS(C)(=O)=O)ccc32)cc1", "BRD4 (BDII_E352-M457) (Homo sapiens, UniProt O60885)", "Ki", 1.35),
    ("Cn1cc2c3c(c(C#N)[nH]c3c1=O)CN(c1ccc(Cl)cc1)c1ccc(CS(C)(=O)=O)cc1-2", "BRD4 (BDII_E352-M457) (Homo sapiens, UniProt O60885)", "Ki", 1.21),
    ("CCOC(=O)C1c2c[nH]c3c(=O)n(C)cc(c23)-c2cc(CS(C)(=O)=O)ccc2N1c1ccc(F)cc1 (racemic) [Example 34]", "BRD4 (BDII_E352-M457) (Homo sapiens, UniProt O60885)", "Ki", 3.89),
]

FYI, the data here is from patent US10035800B2.
